Assay: yeast display, Sf9 membrane polyspecificity reagent, FACS + sequencing; frameworks hold sequencing errors
Measurement Type: polyreactivity (PSR sort gate)

| Sequence Data | Value Reported |
| --- | --- |
| HVQLVESGGGLVQAGGSLRLSCAASGSIFSGNAMGWYRQAPGKERELVAAISYSDGSTYYADSVKGRFTISRDNAKNTVYLQMNSLKPEDTAVYYCAADGYPYTYDYWGQGTQVTVST | low polyreactivity |
| QVQLVESGGGLVQAGGSLRLSCAASGIIFYLYAMGWYRQAPGKERELVAAISGSGGNTYYADSVKGRFTISRDNAKNTVYLQMNSLKPEDTAVYYCAVAVFVWYAVIPYAEYDYWGQGTQVTVSS | high polyreactivity |
| QVQLVESGGGLVQAGGSLRLSCAASGFTFEVYAMGRYRQAPGKERELVAAITSSGGRTYYADSVKGRFTISRDYAKNTVYLQMNSLKPEDTAGYYCAAYVSYEYGYWGQGSQVTVSS | high polyreactivity |
| QVQLVESGGGLVQAGGSLRLSCAASGSIFDPYTMGWYRQAPGKERELVAAINWSGGSTYYADSVKGRCTISRDNAKNTVYLQINSLKPEDTAVSHCNADPHGYYGYGYDYWGQGTQVNVSS | low polyreactivity |
| QVQLVESGGGLVQAGGSLRLICAASGRIFLYYAMGWYRQAPGKERELVAAITRGGGTTYADSVKGRFTISRDNAKNTVYLQMNSLKPEDTAVYYCAKRYSYYPGFDYWGQGTQVTVSS | high polyreactivity |
| QVQLVESGGGLVQAGGSLRLSCAASGSTFYTYAMGWYRQAPGKERELVAAITRGGGRTYYADSVKGRFTISRDNAKNTVYLQMNSLKPEDTAVYYCAATVGYGHSYAGWYWVDYWGQGTQVTVSS | high polyreactivity |
| QVQLVESGGRLVQAGGSLRLSCAASGYIVTIYAMGWYRQAPGKEREFVAAITWSGGRTYYADSVKGRFTISRDNPKNTVYIQRNSLTPEDTAVYYCDARVANYLSQMYYWGQGTQVTVSS | high polyreactivity |
| QVQLVESGGGLVQAGGSLRLSCAASGRIFSRYAMGWYRQAPGKERELVAAISWSGGSTYYADSVKGRFTISRDNAKNTVYLQINSLKPEDTAVYYCAAKRQYTEYNYWGQGTQVTVSS | high polyreactivity |
| QVQLVESGGGLVQAGGSLRLSCAASGITFPANAMGWYRQAPGKERELVAAISTSGGSTYYADSVKGRFTISRDNAKNTVYLQMNSLKPEDTAVYYCAATIYPYYSLYSHYYWGQCTQVTVSS | high polyreactivity |
| QVQLVESGGGLVQAGGSLRLSCAASGSIFYANAMGWYRQAPGKERELVAAISRSGGRTYYADSVKGRFTISRDNAKNTVYLQMNSLKPEDTAVYYCNAVYVSYTYQQTRPRYYYWGQGTQVTVSS | high polyreactivity |
| QVQLVESGGGLVQAGGSLRLSCAASGRIFDGYVMGWYRQAPGKERELVAAISASGGSTYYADSVKGRFTISRDNAKNTVYLQMNSLKPEDTAVYYCATDALYGYDYWGQGTQVTVSS | high polyreactivity |
